Each recorded value in this set is attributed to paper PMC12095047.

Molecular target: PIN8 (Arabidopsis thaliana, UniProt Q9LFP6)
Construct: made in house
Sequence (Q9LFP6 1-367): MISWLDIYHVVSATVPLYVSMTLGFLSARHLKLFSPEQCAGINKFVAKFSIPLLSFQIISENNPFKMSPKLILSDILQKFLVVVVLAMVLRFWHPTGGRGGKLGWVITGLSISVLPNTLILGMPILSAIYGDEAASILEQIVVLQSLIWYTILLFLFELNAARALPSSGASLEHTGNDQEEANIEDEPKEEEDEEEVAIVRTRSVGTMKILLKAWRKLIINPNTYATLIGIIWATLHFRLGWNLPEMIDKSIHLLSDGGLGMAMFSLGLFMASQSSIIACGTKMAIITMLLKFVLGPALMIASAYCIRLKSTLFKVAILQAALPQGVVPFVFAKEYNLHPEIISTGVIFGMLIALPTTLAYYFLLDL
Assay: SSM electrophysiology, KD by inhibition of the NPA binding current
Settings: Peak current, sheet F2A (Fig. 2a, KD of substrate binding); individual sensors
property.name: pKd
Answers are plain numbers, as −log10 of the molar value.

Form: compound = O=C(O)COc1cc(Cl)c(Cl)cc1Cl ; pKd = 5.03
